Origin of values: patent US20180318287A1

# assayed system: ATR kinase (Homo sapiens, UniProt Q13535)
# Construct: endogenous in cells; host or cells: HT29 cells (ECACC #85061109)
# Sequence (Q13535 whole entry): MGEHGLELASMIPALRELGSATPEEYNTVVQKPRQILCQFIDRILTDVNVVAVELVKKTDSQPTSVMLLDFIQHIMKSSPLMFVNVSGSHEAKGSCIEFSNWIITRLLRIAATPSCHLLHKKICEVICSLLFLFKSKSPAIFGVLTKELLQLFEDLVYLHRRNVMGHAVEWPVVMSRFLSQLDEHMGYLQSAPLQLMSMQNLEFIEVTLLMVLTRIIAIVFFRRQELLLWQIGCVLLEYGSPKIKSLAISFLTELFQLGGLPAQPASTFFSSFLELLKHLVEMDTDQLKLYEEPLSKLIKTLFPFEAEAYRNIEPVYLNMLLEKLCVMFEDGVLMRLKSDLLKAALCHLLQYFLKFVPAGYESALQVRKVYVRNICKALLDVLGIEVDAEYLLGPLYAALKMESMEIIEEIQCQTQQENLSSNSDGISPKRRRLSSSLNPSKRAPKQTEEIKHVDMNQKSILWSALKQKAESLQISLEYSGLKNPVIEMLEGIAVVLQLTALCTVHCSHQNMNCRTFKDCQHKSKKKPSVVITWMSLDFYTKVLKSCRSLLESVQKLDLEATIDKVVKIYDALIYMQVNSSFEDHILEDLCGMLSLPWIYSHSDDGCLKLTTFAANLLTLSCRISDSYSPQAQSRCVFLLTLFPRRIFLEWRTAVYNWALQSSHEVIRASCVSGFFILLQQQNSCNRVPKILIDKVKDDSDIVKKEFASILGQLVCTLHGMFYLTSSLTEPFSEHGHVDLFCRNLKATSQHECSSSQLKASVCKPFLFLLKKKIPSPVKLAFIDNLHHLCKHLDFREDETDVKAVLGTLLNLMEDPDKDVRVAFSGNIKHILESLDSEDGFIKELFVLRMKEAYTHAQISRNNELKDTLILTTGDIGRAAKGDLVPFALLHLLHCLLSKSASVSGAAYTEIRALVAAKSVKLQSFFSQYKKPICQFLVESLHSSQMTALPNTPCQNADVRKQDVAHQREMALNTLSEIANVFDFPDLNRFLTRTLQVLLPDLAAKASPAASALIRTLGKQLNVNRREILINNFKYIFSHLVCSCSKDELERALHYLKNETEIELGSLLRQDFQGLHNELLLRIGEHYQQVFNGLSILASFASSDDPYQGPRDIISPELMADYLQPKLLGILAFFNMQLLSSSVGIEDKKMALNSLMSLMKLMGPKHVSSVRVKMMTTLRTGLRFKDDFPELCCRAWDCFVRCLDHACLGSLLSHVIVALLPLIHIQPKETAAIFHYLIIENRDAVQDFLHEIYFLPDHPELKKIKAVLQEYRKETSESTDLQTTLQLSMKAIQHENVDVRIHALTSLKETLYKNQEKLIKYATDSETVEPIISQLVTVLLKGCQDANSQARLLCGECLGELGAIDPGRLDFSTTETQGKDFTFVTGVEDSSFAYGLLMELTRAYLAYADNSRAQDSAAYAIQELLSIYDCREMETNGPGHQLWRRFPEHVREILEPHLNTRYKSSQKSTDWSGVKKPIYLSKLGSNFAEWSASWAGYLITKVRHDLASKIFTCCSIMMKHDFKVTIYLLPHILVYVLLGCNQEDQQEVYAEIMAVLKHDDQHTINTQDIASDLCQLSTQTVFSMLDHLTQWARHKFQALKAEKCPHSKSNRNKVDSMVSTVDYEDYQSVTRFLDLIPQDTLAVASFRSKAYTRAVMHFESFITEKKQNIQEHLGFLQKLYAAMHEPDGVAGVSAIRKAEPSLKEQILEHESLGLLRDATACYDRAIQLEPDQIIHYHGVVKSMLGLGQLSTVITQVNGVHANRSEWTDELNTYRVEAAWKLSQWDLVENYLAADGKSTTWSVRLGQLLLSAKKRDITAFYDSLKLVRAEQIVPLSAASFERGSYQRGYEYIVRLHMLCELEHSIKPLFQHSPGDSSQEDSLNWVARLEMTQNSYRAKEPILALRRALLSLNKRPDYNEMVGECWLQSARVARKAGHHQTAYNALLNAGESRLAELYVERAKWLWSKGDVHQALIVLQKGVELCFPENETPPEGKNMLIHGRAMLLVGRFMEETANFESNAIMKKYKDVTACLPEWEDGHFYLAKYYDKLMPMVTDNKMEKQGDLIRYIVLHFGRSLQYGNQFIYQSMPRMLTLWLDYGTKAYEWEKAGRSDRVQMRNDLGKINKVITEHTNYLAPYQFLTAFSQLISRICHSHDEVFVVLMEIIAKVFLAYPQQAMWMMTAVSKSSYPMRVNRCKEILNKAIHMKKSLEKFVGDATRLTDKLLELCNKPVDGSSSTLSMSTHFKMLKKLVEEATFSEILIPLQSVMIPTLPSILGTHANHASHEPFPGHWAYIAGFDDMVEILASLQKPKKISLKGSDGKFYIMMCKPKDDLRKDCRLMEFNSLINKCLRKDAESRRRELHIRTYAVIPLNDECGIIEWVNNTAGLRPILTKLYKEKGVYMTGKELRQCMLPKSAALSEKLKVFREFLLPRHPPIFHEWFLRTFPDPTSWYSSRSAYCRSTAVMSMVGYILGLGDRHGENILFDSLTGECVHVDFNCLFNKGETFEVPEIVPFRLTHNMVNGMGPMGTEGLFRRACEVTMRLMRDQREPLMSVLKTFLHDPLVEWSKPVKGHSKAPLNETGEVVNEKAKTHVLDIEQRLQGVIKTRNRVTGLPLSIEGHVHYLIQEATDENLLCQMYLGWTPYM
# Sequence (Q8WXE1 whole entry partner): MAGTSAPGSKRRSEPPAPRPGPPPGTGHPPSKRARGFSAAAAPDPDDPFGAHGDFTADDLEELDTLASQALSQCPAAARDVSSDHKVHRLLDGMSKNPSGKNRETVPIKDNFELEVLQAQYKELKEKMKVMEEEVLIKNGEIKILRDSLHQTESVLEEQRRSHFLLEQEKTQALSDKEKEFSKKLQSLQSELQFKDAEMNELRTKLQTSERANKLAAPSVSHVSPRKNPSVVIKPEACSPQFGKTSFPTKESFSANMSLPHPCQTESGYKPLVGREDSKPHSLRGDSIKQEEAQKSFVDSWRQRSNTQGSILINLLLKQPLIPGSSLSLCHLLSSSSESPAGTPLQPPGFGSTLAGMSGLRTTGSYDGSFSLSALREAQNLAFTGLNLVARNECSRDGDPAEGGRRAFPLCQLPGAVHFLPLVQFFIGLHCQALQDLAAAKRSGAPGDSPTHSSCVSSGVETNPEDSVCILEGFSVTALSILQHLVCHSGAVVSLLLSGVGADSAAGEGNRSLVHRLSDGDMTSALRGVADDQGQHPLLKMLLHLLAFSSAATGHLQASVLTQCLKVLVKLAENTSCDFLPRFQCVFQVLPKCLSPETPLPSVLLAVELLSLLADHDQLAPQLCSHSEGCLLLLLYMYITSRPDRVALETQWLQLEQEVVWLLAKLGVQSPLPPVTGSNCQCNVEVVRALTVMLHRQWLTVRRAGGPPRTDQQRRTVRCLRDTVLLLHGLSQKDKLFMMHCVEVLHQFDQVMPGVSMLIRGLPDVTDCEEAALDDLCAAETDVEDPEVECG
# protocol: Assay b): ATR cellular potency (pChk1 Ser345 in HT29 cells after 4NQO)
# Format: cell-based
# reported conditions: HT29 cells, 4NQO, pChk1 Ser345; Table 2; read-out: Assay b) ATR Cell IC50
pIC50: −log10 of the molar value.
// values below are reported pIC50

{"columns": ["molecule", "pIC50"],
 "data": [
  ["CO[C@@H]1CCC[C@H](n2c(=O)n(C)c3cnc4ccc(-c5ccc(OCCCN(C)C)cc5)cc4c32)C1 (relative stereo) [Example 32]", "< 4.52"],
  ["CC(C)n1c(=O)n(C)c2cnc3ccc(-c4ccc(OCCN(C)C)cc4)cc3c21 [Example 5]", "< 4.52"],
  ["CN(C)CCOc1ccc(-c2ccc3ncc4c(c3c2)n([C@H]2CCCOC2)c(=O)n4C)cc1 [Example 47]", "< 4.52"],
  ["Cn1c(=O)n([C@@H]2CCCOC2)c2c3cc(-c4ccc(OCCCN5CCCC5)cc4)ccc3ncc21 [Example 16]", "< 4.59"],
  ["CO[C@H]1CCC[C@H](n2c(=O)n(C)c3cnc4ccc(-c5ccc(OCCCN(C)C)cc5)cc4c32)C1 (single isomer, unassigned) [Example 28]", 4.95],
  ["CO[C@@H]1CC[C@@H](n2c(=O)n(C)c3cnc4cc(F)c(-c5ccc(OCCCN(C)C)cc5)cc4c32)C1 (single isomer, unassigned) [Example 14]", "< 4.53"],
  ["CO[C@H]1CC[C@@H](n2c(=O)n(C)c3cnc4ccc(-c5ccc(OCCCN(C)C)cc5)cc4c32)CC1 [Example 25]", 4.68]
]}

---

# assayed system: ATR kinase (Homo sapiens)
# Construct: endogenous in cells; host or cells: HT29 cells (ECACC #85061109)
# protocol: Assay b): ATR cellular potency (pChk1 Ser345 in HT29 cells after 4NQO)
# Assay type: cell-based
# reported conditions: HT29 cells, 4NQO, pChk1 Ser345; Table 2; read-out: Assay b) ATR Cell IC50
// values below are reported IC50

{"columns": ["structure string", "IC50"],
 "data": [
  ["CC(C)n1c(=O)n(C)c2cnc3ccc(-c4ccc(OCCCN5CCCC5)cc4)cc3c21", "> 30 µM"],
  ["Cn1c(=O)n([C@H]2CCCOC2)c2c3cc(-c4ccc(OCCN5CCCC5)cc4)ccc3ncc21", "> 30 µM"],
  ["CN(C)CCOc1ccc(-c2ccc3ncc4c(c3c2)n(C2CCC2)c(=O)n4C)cc1", "> 30 µM"],
  ["Cn1c(=O)n([C@@H]2CCCOC2)c2c3cc(-c4ccc(OCCN5CCCC5)cc4)ccc3ncc21", "> 25.5 µM"]
]}

---

# assayed system: ATM kinase (Homo sapiens, UniProt Q13315)
# Construct: endogenous in cells; host or cells: HT29 cells (ECACC #85061109)
# protocol: Assay a): ATM cellular potency (pATM Ser1981 in irradiated HT29 cells)
# Type: cell-based
# reported conditions: HT29 cells, X-ray irradiation, pATM Ser1981; Table 3 comparative data; read-out: Assay a) ATM Cell IC50
pIC50: −log10 of the molar value.

{"columns": ["compound", "assayed system", "pIC50"],
 "data": [
  ["COc1ncc(-c2ccc3ncc4c(c3c2)n(C2CC2)c(=O)n4C)cc1NS(=O)(=O)C1CC1 [CN102399218A Compound 114, reference compound]", "ATM kinase (Homo sapiens, UniProt Q13315)", 7.13],
  ["Cn1c(=O)n(C2CCOCC2)c2c3cc(-c4cnn(CCCO)c4)ccc3ncc21 [CN102399218A Compound 60, reference compound]", "ATM kinase (Homo sapiens, UniProt Q13315)", 5.75],
  ["Cn1c(=O)n(C2CC2)c2c3cc(-c4cnc5[nH]ccc5c4)ccc3ncc21 [CN102399218A Compound 62, reference compound]", "ATM kinase (Homo sapiens, UniProt Q13315)", 7.10],
  ["Cn1c(=O)n(C2CCOCC2)c2c3cc(-c4cnc(N)nc4)ccc3ncc21 [CN102399218A Compound 94, reference compound]", "ATM kinase (Homo sapiens, UniProt Q13315)", 6.31]
]}

---

// values below are reported pIC50
# assayed system: ATR kinase (Homo sapiens)
# Construct: endogenous in cells; host or cells: HT29 cells (ECACC #85061109)
# protocol: Assay b): ATR cellular potency (pChk1 Ser345 in HT29 cells after 4NQO)
# Format: cell-based
# reported conditions: HT29 cells, 4NQO, pChk1 Ser345; Table 2; read-out: Assay b) ATR Cell IC50
pIC50: −log10 of the molar value.
readout name: pIC50

{"columns": ["structure string", "readout name", "readout value"],
 "data": [
  ["CC(C)n1c(=O)n(C)c2cnc3cc(F)c(-c4ccc(OCCCN5CCC5)cc4)cc3c21", "pIC50", "< 4.52"],
  ["CO[C@H]1C[C@@H](n2c(=O)n(C)c3cnc4ccc(-c5ccc(OCCCN6CCCC6)cc5)cc4c32)C1", "pIC50", "< 4.54"],
  ["Cn1c(=O)n(C2CCOCC2)c2c3cc(-c4ccc(OCCCN5CCCCC5)cc4)ccc3ncc21", "pIC50", "< 4.75"],
  ["CC(C)n1c(=O)n(C)c2cnc3ccc(-c4ccc(OCCCN(C)C)cc4)cc3c21", "pIC50", "< 4.52"]
]}

---

# assayed system: ATM kinase (Homo sapiens)
# Construct: endogenous in cells; host or cells: HT29 cells (ECACC #85061109)
# protocol: Assay a): ATM cellular potency (pATM Ser1981 in irradiated HT29 cells)
# Assay type: cell-based
# reported conditions: HT29 cells, X-ray irradiation, pATM Ser1981; Table 2; read-out: Assay a) ATM Cell IC50
pIC50: −log10 of the molar value.
// values below are reported pIC50

{"columns": ["compound", "pIC50"],
 "data": [
  ["Cn1c(=O)n([C@H]2CCCOC2)c2c3cc(-c4ccc(OCCCN5CCCC5)cc4)ccc3ncc21", 9.04],
  ["CO[C@H]1CC[C@H](n2c(=O)n(C)c3cnc4ccc(-c5ccc(OCCCN6CCCC6)cc5)cc4c32)CC1", 9.34],
  ["CO[C@@H]1CCC[C@H](n2c(=O)n(C)c3cnc4ccc(-c5ccc(OCCCN6CCCC6)cc5)cc4c32)C1 (relative stereo)", 8.64],
  ["CN(C)CCOc1ccc(-c2ccc3ncc4c(c3c2)n(C2CCC2)c(=O)n4C)cc1", 8.03],
  ["CO[C@H]1C[C@@H](n2c(=O)n(C)c3cnc4cc(F)c(-c5ccc(OCCCN(C)C)cc5)cc4c32)C1", 8.73],
  ["CO[C@H]1C[C@@H](n2c(=O)n(C)c3cnc4ccc(-c5ccc(OCCCN6CCCC6)cc5)cc4c32)C1", 9.64],
  ["CO[C@H]1C[C@@H](n2c(=O)n(C)c3cnc4ccc(-c5ccc(OCCN6CCCC6)cc5)cc4c32)C1", 7.44]
]}
